method: gradient 5% acetonitrile 3 min, to 50% in 2 min, to 85% in 15 min, held 3 min, 100 µL/min
protocol conditions: column: Zorbax Extend-C18 2.1 x 50 mm; eluents: water / acetonitrile, 0.1% formic acid
Rule for this label: TRUE means RP-LC retention time is less than 900 s; FALSE means RP-LC retention time is at least 900 s.

Use these answered entries as a reference point.
O=C(Nc1cccc(Br)c1)C1CCCN(c2ncc(-c3ccccc3)cn2)C1 (centres undefined)    FALSE
Cc1ccc(CN2CCc3nc(N4CCN(c5ccccc5F)CC4)ncc3C2)cc1    TRUE
CCc1cccc(C)c1Nc1c(-c2ccc(OC)cc2)nc2ncccn12    TRUE
COc1ccc(-n2c(=O)c3sccc3n(Cc3nc(-c4cccc(C)c4)no3)c2=O)cc1    FALSE

Exercise: # TODO verify RP-LC retention time < 900 s strictly for this compound: CCNC(=O)C1CCc2sc(C(=O)N(C)C)cc2C1 (centres undefined)
Solution: TRUE

Exercise: # TODO verify RP-LC retention time < 900 s strictly for this compound: Cc1sc(NC(=O)c2cccc(F)c2)nc1-c1ccccc1
Solution: FALSE

Exercise: # TODO verify RP-LC retention time < 900 s strictly for this compound: CN1CCN(C(=O)c2cc(-c3ccccc3)cn2C)CC1
Solution: TRUE

Exercise: # TODO verify RP-LC retention time < 900 s strictly for this compound: FC(F)c1nc2ccccc2n1-c1nc(N2CCOCC2)nc(N2CCOCC2)n1
Solution: FALSE

Exercise: # TODO verify RP-LC retention time < 900 s strictly for this compound: O=C(CN1C(=O)C2CCCCN2c2ccc(S(=O)(=O)N3CCCC3)cc21)NCCN1CCCC1 (centres undefined)
Solution: TRUE

Exercise: # TODO verify RP-LC retention time < 900 s strictly for this compound: CSc1cccc(NC(=O)Cn2cccc(-c3nc(-c4ccc(Cl)cc4)no3)c2=O)c1
Solution: FALSE

Exercise: # TODO verify RP-LC retention time < 900 s strictly for this compound: Cc1nc(C)c(-c2nnc(NC(=O)C3CC(=O)N(c4ccc(F)cc4)C3)o2)s1 (centres undefined)
Solution: TRUE

Exercise: # TODO verify RP-LC retention time < 900 s strictly for this compound: Cc1ccc2c(CN3CCN(c4ccccn4)CC3)cc(=O)oc2c1
Solution: TRUE

Exercise: # TODO verify RP-LC retention time < 900 s strictly for this compound: O=C(Nc1cc(-c2ccsc2)no1)C1(c2ccccc2)CC1
Solution: FALSE

Exercise: # TODO verify RP-LC retention time < 900 s strictly for this compound: CC(C)CNC(=O)C1CCN(C(=O)c2ncn3c2COC(c2ccccc2)C3)CC1 (centres undefined)
Solution: TRUE

Exercise: # TODO verify RP-LC retention time < 900 s strictly for this compound: COc1ccc(S(=O)(=O)N2CCCC(C(=O)Nc3ccc4c(c3)OCO4)C2)cc1C (centres undefined)
Solution: FALSE

Exercise: # TODO verify RP-LC retention time < 900 s strictly for this compound: Cc1nn(-c2ccccc2)c2ccn(CC(=O)N3CCN(c4ccccc4Cl)CC3)c(=O)c12
Solution: TRUE
